Measured AhR3′DT-1 activity relative to Mg^2+ of individual entries
target.or.test.system: AhR3′DT-1 (Arachis hypogaea, UniProt A0A2H4GDD0)
Sequence (A0A2H4GDD0 entry or part of it): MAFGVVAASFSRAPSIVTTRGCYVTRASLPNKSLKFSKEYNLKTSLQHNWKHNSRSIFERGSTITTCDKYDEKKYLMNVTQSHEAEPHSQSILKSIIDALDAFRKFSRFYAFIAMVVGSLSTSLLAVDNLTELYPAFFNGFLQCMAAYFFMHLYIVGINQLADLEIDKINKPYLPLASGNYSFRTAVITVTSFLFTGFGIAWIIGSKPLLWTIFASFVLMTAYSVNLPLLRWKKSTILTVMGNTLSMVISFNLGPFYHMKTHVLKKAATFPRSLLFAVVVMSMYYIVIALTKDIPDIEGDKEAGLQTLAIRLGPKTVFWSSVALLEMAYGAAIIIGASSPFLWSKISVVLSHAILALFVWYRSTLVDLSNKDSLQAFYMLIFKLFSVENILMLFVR
experimental.details: AhR3′DT-1 activity in microsomal fraction of N. benthamiana leaves
condition.parameters: 10 mM divalent cation or EDTA
quantity.kind: AhR3′DT-1 activity relative to Mg^2+ (%)

compound="[Mn+2] [Mn^2+]" observed_measurement=210.3
compound="[Mg+2] [Mg^2+]" observed_measurement=100
compound="[Fe+2] [Fe^2+]" observed_measurement=34.8

---

Test system: resveratrol prenyltransferase AhR4DT
experimental.details: Prenyltransferase assay with microsomal fraction of elicited peanut hairy roots
Format: biochemical, Arachis hypogaea
condition.parameters: 10 mM divalent cation
Listed next: entries and their corresponding resveratrol prenyltransferase activity relative to Mg^2+.
quantity.kind: resveratrol prenyltransferase activity relative to Mg^2+

compound="[Mg+2] [Mg^2+]" target_or_test_system="resveratrol prenyltransferase AhR4DT" observed_measurement=100%
compound="[Ca+2] [Ca^2+]" target_or_test_system="resveratrol prenyltransferase AhR4DT" observed_measurement=0.9%
compound="[Mn+2] [Mn^2+]" target_or_test_system="resveratrol prenyltransferase AhR4DT" observed_measurement=71.8%
compound="[Fe+2] [Fe^2+]" target_or_test_system="resveratrol prenyltransferase AhR4DT" observed_measurement=14.6%

---

Recorded AhR4DT-1 activity relative to Mg^2+ values for a group of compounds are listed next.
target.or.test.system: AhR4DT-1 (Arachis hypogaea, UniProt A0A2H4GDC8)
Sequence (A0A2H4GDC8 entry or part of it): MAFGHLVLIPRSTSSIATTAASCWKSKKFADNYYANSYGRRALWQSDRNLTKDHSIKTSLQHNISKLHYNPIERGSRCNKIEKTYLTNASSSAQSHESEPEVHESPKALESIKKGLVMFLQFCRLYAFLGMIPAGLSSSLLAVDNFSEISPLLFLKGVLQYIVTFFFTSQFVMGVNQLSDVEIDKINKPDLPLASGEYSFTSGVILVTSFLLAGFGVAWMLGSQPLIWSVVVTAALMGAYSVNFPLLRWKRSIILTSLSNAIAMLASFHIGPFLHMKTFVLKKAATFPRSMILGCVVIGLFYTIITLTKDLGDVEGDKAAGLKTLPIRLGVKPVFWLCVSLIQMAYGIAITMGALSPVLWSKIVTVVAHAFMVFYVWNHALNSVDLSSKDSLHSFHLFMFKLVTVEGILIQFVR
experimental.details: AhR4DT-1 activity in microsomal fraction of N. benthamiana leaves
condition.parameters: 10 mM divalent cation or EDTA
quantity.kind: AhR4DT-1 activity relative to Mg^2+ (%)

compound_structure_string=[Mn+2] quantity_kind="AhR4DT-1 activity relative to Mg^2+" observed_measurement=83.9
compound_structure_string=[Mg+2] quantity_kind="AhR4DT-1 activity relative to Mg^2+" observed_measurement=100
compound_structure_string=[Fe+2] quantity_kind="AhR4DT-1 activity relative to Mg^2+" observed_measurement=6.4

---

target.or.test.system: UniProt A0A2H4GDC8
experimental.details: AhR4DT-1 activity in microsomal fraction of N. benthamiana leaves
condition.parameters: DMAPP as prenyl donor
quantity.kind: prenylation as prenyl acceptor

compound="Oc1cc(O)cc(/C=C/c2ccc(O)c(O)c2)c1 [piceatannol, 3,5,3′,4′-tetrahydroxy-trans-stilbene]" observed_measurement="can selectively catalyze"
compound="Oc1cc(O)cc(/C=C/c2ccccc2)c1 [pinosylvin]" observed_measurement="can selectively catalyze"
compound="Oc1cc(O)cc(/C=C/c2ccc(O)cc2O)c1 [oxyresveratrol]" observed_measurement="can selectively catalyze"
